Numbers sourced from patent EP4596580A1.

Molecular target: T1, His-human LIGHT (human)
T1 construct: also called His-huLIGHT; free LIGHT
T1 chain: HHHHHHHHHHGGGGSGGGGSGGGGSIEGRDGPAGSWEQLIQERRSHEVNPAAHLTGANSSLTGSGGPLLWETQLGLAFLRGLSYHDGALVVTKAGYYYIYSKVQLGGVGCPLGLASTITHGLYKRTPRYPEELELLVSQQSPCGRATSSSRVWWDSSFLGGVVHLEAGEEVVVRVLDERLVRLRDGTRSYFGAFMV
Assay: SPR, Biacore 8K, antibody on CM5 chip, human LIGHT
binders and their reported kon

{"columns": ["binder", "kon"],
 "data": [
  ["hum_LT-m37-9 (antibody, human IgG4, V domains shown, humanized from LT-m37) VH: QVQLVQSGAEVKKPGASVKVSCKASGYSFTGYFINWVRQAPGQSLEWIGRIYPYNVNTFYNQNFKGRATLTADKSTSTAYMELSSLRSEDTAVYYCGRGTHYYGSSGAMDYWGQGTLVTVSS VL: EIVLTQSPATLSVSPGERATLSCKASQNVGTAVAWYQQKPGQSPRLLIYSASNRYTGIPARFSGSGSGTEFTLTISSLQSEDFAVYYCQQYSSYPYTFGGGTKVEIK", "210000 M⁻¹ s⁻¹"],
  ["hum_LT-m37-5 (antibody, human IgG4, V domains shown, humanized from LT-m37) VH: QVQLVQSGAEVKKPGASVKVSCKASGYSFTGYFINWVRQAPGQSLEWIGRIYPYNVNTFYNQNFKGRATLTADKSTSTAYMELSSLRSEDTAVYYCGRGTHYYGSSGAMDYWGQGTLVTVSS VL: EIVMTQSPATLSVSPGERATLSCKASQNVGTAVAWYQQKPGQSPRLLIYSASNRYTGIPARFSGSGSGTEFTLTISSLQSEDFAVYFCQQYSSYPYTFGGGTKVEIK", "1.1e+06 M⁻¹ s⁻¹"],
  ["hum_LT-m37-11 (antibody, human IgG4, V domains shown, humanized from LT-m37) VH: QVQLVQSGAEVKKPGASVKVSCKASGYSFTGYFINWVRQAPGQGLEWIGRIYPYNVNTFYNQNFKGRATMTADKSTSTAYMELSSLRSEDTAVYYCGRGTHYYGSSGAMDYWGQGTLVTVSS VL: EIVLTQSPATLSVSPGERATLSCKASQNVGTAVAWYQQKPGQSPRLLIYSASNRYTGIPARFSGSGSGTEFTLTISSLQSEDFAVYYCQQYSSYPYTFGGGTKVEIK", "1.24e+06 M⁻¹ s⁻¹"],
  ["hum_LT-m37-4 (antibody, human IgG4, V domains shown, humanized from LT-m37) VH: QVQLVQSGAEVKKPGASVKVSCKASGYSFTGYFINWVRQAPGQGLEWIGRIYPYNVNTFYNQNFKGRVTMTADKSTSTAYMELSSLRSEDTAVYYCGRGTHYYGSSGAMDYWGQGTLVTVSS VL: EIVLTQSPATLSVSPGERATLSCKASQNVGTAVAWYQQKPGQSPRLLIYSASNRYTGIPARFSGSGSGTEFTLTISSLQSEDFAVYFCQQYSSYPYTFGGGTKVEIK", "295000 M⁻¹ s⁻¹"],
  ["hum_LT-m37-12 (antibody, human IgG4, V domains shown, humanized from LT-m37) VH: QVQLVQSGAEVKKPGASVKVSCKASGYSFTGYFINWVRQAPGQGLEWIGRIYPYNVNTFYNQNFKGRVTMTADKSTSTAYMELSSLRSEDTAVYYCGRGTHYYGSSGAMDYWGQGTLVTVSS VL: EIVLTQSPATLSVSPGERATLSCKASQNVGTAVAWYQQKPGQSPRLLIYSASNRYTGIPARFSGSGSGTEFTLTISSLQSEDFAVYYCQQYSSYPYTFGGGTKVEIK", "1.18e+06 M⁻¹ s⁻¹"]
]}
